target: HRgpA-6H (Porphyromonas gingivalis) (UniProt P28784); test: ELISA, Fab FASEBA supernatant on coated HRgpA-6H
observed.property: Ratio OD(Variant)/OD(WT)

parental mouse (KB001) Fab FASEBA, VL variant S95T (Fab, V domains shown) VH: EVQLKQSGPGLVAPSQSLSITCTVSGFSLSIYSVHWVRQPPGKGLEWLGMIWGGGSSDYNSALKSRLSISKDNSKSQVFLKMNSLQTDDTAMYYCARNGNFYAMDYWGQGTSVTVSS VL: QIVLTQSPAIMSASLGERVTMTCTASSSVSSSFLHWYQQKPGSSPQLWIYSTSNLASGVPARFSGSGSGTSYSLTISSMEAEDAATYYCHQYHHTPYIYTFGGGTKLEIK | 0.948 ratio to WT
parental mouse (KB001) Fab FASEBA, VL variant S95H (Fab, V domains shown) VH: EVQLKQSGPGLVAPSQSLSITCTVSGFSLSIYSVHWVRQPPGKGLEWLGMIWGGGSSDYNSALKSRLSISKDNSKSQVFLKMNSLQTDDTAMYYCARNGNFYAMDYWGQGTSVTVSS VL: QIVLTQSPAIMSASLGERVTMTCTASSSVSSSFLHWYQQKPGSSPQLWIYSTSNLASGVPARFSGSGSGTSYSLTISSMEAEDAATYYCHQYHHHPYIYTFGGGTKLEIK | 0.871 ratio to WT
parental mouse (KB001) Fab FASEBA, VL variant H90W (Fab, V domains shown) VH: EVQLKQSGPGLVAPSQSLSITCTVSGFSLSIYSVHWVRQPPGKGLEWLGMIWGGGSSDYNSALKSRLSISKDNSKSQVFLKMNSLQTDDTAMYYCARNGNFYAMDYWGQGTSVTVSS VL: QIVLTQSPAIMSASLGERVTMTCTASSSVSSSFLHWYQQKPGSSPQLWIYSTSNLASGVPARFSGSGSGTSYSLTISSMEAEDAATYYCWQYHHSPYIYTFGGGTKLEIK | 0.886 ratio to WT
parental mouse (KB001) Fab FASEBA, VL variant I98L (Fab, V domains shown) VH: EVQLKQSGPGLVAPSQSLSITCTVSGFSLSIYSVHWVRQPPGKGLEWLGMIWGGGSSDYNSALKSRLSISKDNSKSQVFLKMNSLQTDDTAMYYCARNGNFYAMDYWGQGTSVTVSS VL: QIVLTQSPAIMSASLGERVTMTCTASSSVSSSFLHWYQQKPGSSPQLWIYSTSNLASGVPARFSGSGSGTSYSLTISSMEAEDAATYYCHQYHHSPYLYTFGGGTKLEIK | 0.955 ratio to WT

Please look up its Ratio OD(Variant)/OD(WT): parental mouse (KB001) Fab FASEBA, VL variant H93N (Fab, V domains shown) VH: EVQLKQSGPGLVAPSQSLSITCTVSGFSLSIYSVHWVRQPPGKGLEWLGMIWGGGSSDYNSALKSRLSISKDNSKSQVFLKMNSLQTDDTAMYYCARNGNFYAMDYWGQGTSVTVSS VL: QIVLTQSPAIMSASLGERVTMTCTASSSVSSSFLHWYQQKPGSSPQLWIYSTSNLASGVPARFSGSGSGTSYSLTISSMEAEDAATYYCHQYNHSPYIYTFGGGTKLEIK
0.91 ratio to WT

What about this binder? parental mouse (KB001) Fab FASEBA, VL variant S95Y (Fab, V domains shown) VH: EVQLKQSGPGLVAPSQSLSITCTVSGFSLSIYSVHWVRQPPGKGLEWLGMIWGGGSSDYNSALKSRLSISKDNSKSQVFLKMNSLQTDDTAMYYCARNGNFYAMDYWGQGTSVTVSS VL: QIVLTQSPAIMSASLGERVTMTCTASSSVSSSFLHWYQQKPGSSPQLWIYSTSNLASGVPARFSGSGSGTSYSLTISSMEAEDAATYYCHQYHHYPYIYTFGGGTKLEIK
0.9 ratio to WT

What about this binder? parental mouse (KB001) Fab FASEBA, VL variant Y97S (Fab, V domains shown) VH: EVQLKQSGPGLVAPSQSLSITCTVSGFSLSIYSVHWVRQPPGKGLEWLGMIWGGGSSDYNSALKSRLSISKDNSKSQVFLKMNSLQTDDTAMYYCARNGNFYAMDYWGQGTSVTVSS VL: QIVLTQSPAIMSASLGERVTMTCTASSSVSSSFLHWYQQKPGSSPQLWIYSTSNLASGVPARFSGSGSGTSYSLTISSMEAEDAATYYCHQYHHSPSIYTFGGGTKLEIK
0.802 ratio to WT
